Data origin: ChEMBL document CHEMBL1124730

// reported Expression for each item listed
- Tested on: H9
- METHOD: Percentage of gag protein expression using H9 cells at 50 uM on 7th day
- Type: functional, Homo sapiens
Please state the value followed by its unit.

Illustrative cases are given below, each with its answer.
[[record]]
molecule = "Nc1ncnc2c1ncn2[C@@H]1O[C@H](CO)C[C@@H]1F [LODENOSINE]"
observed_value = "18%"

[[record]]
molecule = "O=c1[nH]cnc2c1ncn2[C@H]1CC[C@@H](CO)O1 [DIDANOSINE]"
observed_value = "0%"

[[record]]
molecule = "OCC1CC(F)C(n2cnc3c(O)ncnc32)O1 (centres undefined)"
observed_value = "23%"


Could you now consider this next molecule?
Input line: Provide Expression, tested on H9, for Nc1ncnc2c1ncn2[C@H]1CC[C@@H](CO)O1 .
Output line: 0%
